Record form. Attribute: ABSOLUTE MONOCYTE. Fill in for each entry.
# Organism: Rattus norvegicus
# METHOD: DrugMatrix - Regimen: Daily Repeat
# Format: toxicity, organism-based, Sprague-Dawley
# Design: regimen Daily Repeat, gender Male, age 6-8 weeks
# CONDITION_PARAMETERS: in vivo, po, 0 mg/kg, 72 h, tissue Blood, route oral GAVAGE, dose level Control, time 3 day, […]

Recorded results for 5 compounds are shown here.
COMPOUND	ABSOLUTE MONOCYTE
Clc1ccc(Cl)cc1	210 cells/µL
CC/C(=C(/CC)c1ccc(O)cc1)c1ccc(O)cc1	22.5 CELLS/uL
Cc1cccc(Nc2ccncc2S(=O)(=O)NC(=O)NC(C)C)c1 [TORSEMIDE]	240 CELLS/uL
C[C@]12CC[C@@H]3c4ccc(O)cc4CC[C@H]3[C@@H]1CC[C@@H]2O	240 CELLS/uL
CC(=O)Nc1cccc(O)c1	164 CELLS/uL

Alright, here's another compound for you.
[ask] // ABSOLUTE MONOCYTE lookup, key: CC(=O)Nc1ccc(O)cc1
[reply] 40.67 CELLS/uL

* * *

# Species on record: Rattus norvegicus
# METHOD: DrugMatrix - Regimen: Daily Repeat
# Format: toxicity, organism-based, Sprague-Dawley
# Design: regimen Daily Repeat, gender Male, age 6-8 weeks
# CONDITION_PARAMETERS: in vivo, po, 1500 mg/kg, 120 h, tissue Blood, route oral GAVAGE, dose level High, time 5 day, vehicle .5 % CMC
REPORTED_METRIC: EOSINOPHIL (%)
Give bare numbers, in %.

Okay, here is my list. What is EOSINOPHIL for each of these?
1. Cc1cc(=O)n(-c2ccccc2)n1C [ANTIPYRINE]
2. O=C(N[C@H](CO)[C@H](O)c1ccc([N+](=O)[O-])cc1)C(Cl)Cl
3. C[C@]1(Cn2ccnn2)[C@H](C(=O)O)N2C(=O)C[C@H]2S1(=O)=O

[reply]
1. 0
2. 0
3. 1

* * *

# Species on record: Rattus norvegicus
# METHOD: DrugMatrix - Regimen: Daily Repeat
# Assay type: toxicity, organism-based, Sprague-Dawley
# Parameters: regimen Daily Repeat, gender Male, age 6-8 weeks
# CONDITION_PARAMETERS: in vivo, po, 0 mg/kg, 72 h, tissue Plasma, route oral GAVAGE, dose level Control, time 3 day, […]
REPORTED_METRIC: BLOOD UREA NITROGEN (mg/dL)
Answers are plain numbers, in mg/dL.

Recorded results for 5 molecules are shown here.
MOLECULE	BLOOD UREA NITROGEN [mg/dL]
CC(C)(Oc1ccc(C2CCCc3ccccc32)cc1)C(=O)O (centres undefined)	17.33
C[C@H]1O[C@@H](O[C@H]2[C@@H](O)C[C@H](O[C@H]3[C@@H](O)C[C@H](O[C@H]4CC[C@@]5(C)[C@H](CC[C@@H]6[C@@H]5CC[C@]5(C)[C@@H](C7=CC(=O)OC7)CC[C@]65O)C4)O[C@@H]3C)O[C@@H]2C)C[C@H](O)[C@@H]1O	14
CC/C(=C(/CC)c1ccc(O)cc1)c1ccc(O)cc1	14.5
S=C=Nc1cccc2ccccc12 [1-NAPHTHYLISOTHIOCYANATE]	13.5
Clc1ccc(Cl)cc1	17.67

Okay, here is my list. What is BLOOD UREA NITROGEN for each of these?
1. CCCCCCCCc1ccc(O)cc1
2. CC(C)Cc1ccc(C(C)C(=O)O)cc1 (centres undefined)
3. C[C@]12CC[C@@H]3c4ccc(O)cc4CC[C@H]3[C@@H]1CC[C@@H]2O
4. CCOC(=O)C(C)(C)Oc1ccc(Cl)cc1 [CLOFIBRATE]

[reply]
13.17
13.33
12
18

* * *

# Organism: Rattus norvegicus
# METHOD: DrugMatrix - Regimen: Daily Repeat
# Format: toxicity, organism-based, Sprague-Dawley
# Set-up: regimen Daily Repeat, gender Male, age 6-8 weeks
# CONDITION_PARAMETERS: in vivo, po, 0 mg/kg, 120 h, tissue Blood, route oral GAVAGE, dose level Control, time 5 day, vehicle 100 % WATER
REPORTED_METRIC: NEUTROPHIL (%)
Numbers only, in %.

Recorded results for 2 molecules are shown here.
MOLECULE	ASSAY_RESULT
ClC(Cl)Cl [CHLOROFORM]	8.17
Cc1ncc([N+](=O)[O-])n1CCO [METRONIDAZOLE]	8.17

Alright, here's another molecule for you.
[ask] // NEUTROPHIL lookup, key: C[N+](C)(C)CCO.[Cl-] [CHOLINE CHLORIDE]
[reply] 7.83

* * *

Record form. Attribute: NEUTROPHIL. Fill in for each entry.
# Species: Rattus norvegicus
# METHOD: DrugMatrix - Regimen: Daily Repeat
# Type: toxicity, organism-based, Sprague-Dawley
# Design: regimen Daily Repeat, gender Male, age 6-8 weeks
# CONDITION_PARAMETERS: in vivo, po, 0 mg/kg, 120 h, tissue Blood, route oral GAVAGE, dose level Control, time 5 day, […]
Answers are plain numbers, in %.

COMPOUND	NEUTROPHIL (%)
CCCCCCCCc1ccc(O)cc1 [4-OCTYLPHENOL]	9.83
CC(C)(Oc1ccc(C2CCCc3ccccc32)cc1)C(=O)O (stereo unspecified) [NAFENOPIN]	13.17
CC(=O)Nc1cccc(O)c1 [METACETAMOL]	14.17

Okay, here is my list. What is NEUTROPHIL for each of these?
1. C[C@]12CC[C@@H]3c4ccc(O)cc4CC[C@H]3[C@@H]1CC[C@@H]2O [ESTRADIOL]
2. CC/C(=C(/CC)c1ccc(O)cc1)c1ccc(O)cc1 [DIETHYLSTILBESTROL]
3. Cc1cccc(Nc2ccncc2S(=O)(=O)NC(=O)NC(C)C)c1 [TORSEMIDE]

[reply]
[5.5, 8.17, 5.5]

* * *

# Species: Rattus norvegicus
# METHOD: DrugMatrix - Regimen: Daily Repeat
# Assay type: toxicity, organism-based, Sprague-Dawley
# Parameters: regimen Daily Repeat, gender Male, age 6-8 weeks
# CONDITION_PARAMETERS: in vivo, po, 0 mg/kg, 72 h, tissue Plasma, route oral GAVAGE, dose level Control, time 3 day, vehicle 100 % WATER
REPORTED_METRIC: ASPARTATE AMINOTRANSFERASE
Write your answer as a measured quantity: the number, then the unit.

Recorded results for 2 compounds are shown here.
COMPOUND	ASPARTATE AMINOTRANSFERASE
ClC(Cl)Cl [CHLOROFORM]	81.83 u/L
CC(C)NCC(O)COc1cccc2ccccc12 (stereo not drawn)	92.33 u/L

[ask] // ASPARTATE AMINOTRANSFERASE lookup, key: CC(C)(C)c1ccc(C(=O)CCCN2CCC(OC(c3ccccc3)c3ccccc3)CC2)cc1
[reply] 77.33 u/L

* * *

# Species on record: Rattus norvegicus
# METHOD: DrugMatrix - Regimen: Daily Repeat
# Type: toxicity, organism-based, Sprague-Dawley
# Parameters: regimen Daily Repeat, gender Male, age 6-8 weeks
# CONDITION_PARAMETERS: in vivo, po, 0 mg/kg, 72 h, tissue Blood, route oral GAVAGE, dose level Control, time 3 day, […]
REPORTED_METRIC: NUCLEATED RED BLOOD CELLS

MOLECULE	REPORTED_METRIC	ASSAY_RESULT
C[C@]12CC[C@@H]3c4ccc(O)cc4CC[C@H]3[C@@H]1CC[C@@H]2O	NUCLEATED RED BLOOD CELLS	0 /100WBC
CC1=C(CC(=O)O)c2cc(F)ccc2/C1=C\c1ccc([S+](C)[O-])cc1 (stereo not given)	NUCLEATED RED BLOOD CELLS	0 /100WBC

Okay, here is my list. What is NUCLEATED RED BLOOD CELLS for each of these?
1. CC/C(=C(/CC)c1ccc(O)cc1)c1ccc(O)cc1
2. COCCOC(=O)C1=C(C)NC(C)=C(C(=O)OC(C)C)C1c1cccc([N+](=O)[O-])c1 (stereo not given)
3. CCOC(=O)C1=C(C)NC(C)=C(C(=O)OC)C1c1cccc([N+](=O)[O-])c1 (stereo not given)

[reply]
["0 /100WBC", "0.17 /100WBC", "0.17 /100WBC"]

Okay, here is my list. What is NUCLEATED RED BLOOD CELLS for each of these?
1. CCOC(=O)C(C)(C)Oc1ccc(Cl)cc1 [CLOFIBRATE]
2. O=C(c1ccc(OCCN2CCCCC2)cc1)c1c(-c2ccc(O)cc2)sc2cc(O)ccc12
3. CC(C)(Oc1ccc(C2CCCc3ccccc32)cc1)C(=O)O (stereo not given)
4. S=C=Nc1cccc2ccccc12 [1-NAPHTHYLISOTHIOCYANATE]
5. CC(C)Cc1ccc(C(C)C(=O)O)cc1 (stereo not given)
6. CCCCCCCCc1ccc(O)cc1
7. CC(=O)N1CCN(c2ccc(OCC3COC(Cn4ccnc4)(c4ccc(Cl)cc4Cl)O3)cc2)CC1 (stereo not given)

[reply]
0 /100WBC
0 /100WBC
0 /100WBC
0.17 /100WBC
0 /100WBC
0 /100WBC
0 /100WBC

Okay, here is my list. What is NUCLEATED RED BLOOD CELLS for each of these?
1. CC(=O)Nc1cccc(O)c1
2. Cc1cccc(Nc2ccncc2S(=O)(=O)NC(=O)NC(C)C)c1 [TORSEMIDE]
3. CC(=O)Nc1ccc(O)cc1

[reply]
["0 /100WBC", "0 /100WBC", "0 /100WBC"]

Values were extracted from ChEMBL document CHEMBL3885881.
